ASSAY SUMMARY: Cytotoxicity against mouse RAW264.7 cells assessed as cell viability at 12.5 ug/ml measured after 24 hrs in presence of LPS by MTT assay (reference value: 96.3 +/- 1%)
Format: toxicity
REPORTED CONDITIONS: read-out: Activity
API: label(entry) gives Criterion met if the entry's viability at 24 h, 12.5 ug/ml is strictly smaller than 70%; on equality or larger values it gives Criterion not met.

Please review the following examples before continuing.
| MOLECULE | ANSWER LABEL |
| --- | --- |
| CC(C)=CCC/C(C)=C/Cc1c(-c2ccc(O)cc2O)oc2c(CC=C(C)C)c(O)cc(O)c2c1=O | Criterion not met |
| CC(=O)Oc1ccc(-c2oc3c4c(cc(O)c3c(=O)c2CC=C(C)C)OC(C)(C)C=C4)c(OC(C)=O)c1 | Criterion met |
| CC(C)=CCc1c(-c2ccc(O)cc2O)oc2c3c(cc(O)c2c1=O)OC(C)(C)C=C3 [MORUSIN] | Criterion not met |
| O=[N+]([O-])/C=C\c1ccc(O)cc1 | Criterion met |
| CC1(C)C=Cc2c(cc(O)c3c(=O)c4c(oc23)-c2ccc(O)cc2OC(C(C)(C)O)C4)O1 (configuration not stated) [NEOCYCLOMORUSIN] | Criterion met |

Please turn your attention to the following entry.
Prompt line: Regarding CC(C)=CC1Oc2cc(O)ccc2-c2oc3c4c(cc(O)c3c(=O)c21)OC(C)(C)C=C4 (configuration not stated) [CYCLOMORUSIN] , kindly confirm whether its viability at 24 h, 12.5 ug/ml is beneath 70%.
Response line: Criterion not met

----------
The reader will find reported viability at 24 h, 50 ug/ml values listed item by item below.
ASSAY SUMMARY: Cytotoxicity against mouse RAW264.7 cells assessed as cell viability at 50 ug/ml measured after 24 hrs in presence of LPS by MTT assay (reference value: 96.3 +/- 1%)
Format: toxicity
REPORTED CONDITIONS: read-out: Activity
Could you give me the number in %? Just the number is fine.

Note to self: viability at 24 h, 50 ug/ml recorded for CC(C)=CCC/C(C)=C/Cc1c(-c2ccc(O)cc2O)oc2c(CC=C(C)C)c(O)cc(O)c2c1=O was 67

Note to self: viability at 24 h, 50 ug/ml recorded for CC(=O)Oc1ccc(-c2oc3c4c(cc(O)c3c(=O)c2CC=C(C)C)OC(C)(C)C=C4)c(OC(C)=O)c1 was 11.7

----------
ASSAY SUMMARY: Cytotoxicity against mouse RAW264.7 cells assessed as cell viability at 1.563 ug/ml measured after 24 hrs in presence of LPS by MTT assay (reference value: 96.3 +/- 1%)
Type: toxicity
REPORTED CONDITIONS: read-out: Activity
PROPERTY LABEL: viability at 24 h, 1.563 ug/ml (%)
Could you give me the number in %? Just the number is fine.

Note to self: viability at 24 h, 1.563 ug/ml recorded for CC(=O)Oc1ccc(-c2oc3c4c(cc(O)c3c(=O)c2CC=C(C)C)OC(C)(C)C=C4)c(OC(C)=O)c1 was 96

----------
ASSAY SUMMARY: Cytotoxicity against mouse RAW264.7 cells assessed as cell viability at 25 ug/ml measured after 24 hrs in presence of LPS by MTT assay (reference value: 96.3 +/- 1%)
Format: toxicity
REPORTED CONDITIONS: read-out: Activity
API: label(entry) gives 1 (yes) if the entry's viability at 24 h, 25 ug/ml is strictly smaller than 40%; on equality or larger values it gives 0 (no).

Please review the following examples before continuing.
| MOLECULE | ANSWER LABEL |
| --- | --- |
| CC(C)=CC1Oc2cc(O)ccc2-c2oc3c4c(cc(O)c3c(=O)c21)OC(C)(C)C=C4 (configuration not stated) [CYCLOMORUSIN] | 0 (no) |
| CC(C)=CCC/C(C)=C/Cc1c(-c2ccc(O)cc2O)oc2c(CC=C(C)C)c(O)cc(O)c2c1=O | 0 (no) |
| O=[N+]([O-])/C=C\c1ccc(O)cc1 | 0 (no) |

Prompt line: Regarding CC(C)=CCc1c(-c2ccc(O)cc2O)oc2c3c(cc(O)c2c1=O)OC(C)(C)C=C3 [MORUSIN] , kindly confirm whether its viability at 24 h, 25 ug/ml is beneath 40%.
Response line: 0 (no)

Prompt line: Regarding CC(=O)Oc1ccc(-c2oc3c4c(cc(O)c3c(=O)c2CC=C(C)C)OC(C)(C)C=C4)c(OC(C)=O)c1 , kindly confirm whether its viability at 24 h, 25 ug/ml is beneath 40%.
Response line: 1 (yes)

----------
ASSAY SUMMARY: Cytotoxicity against mouse RAW264.7 cells assessed as cell viability at 50 ug/ml measured after 24 hrs in presence of LPS by MTT assay (reference value: 96.3 +/- 1%)
Format: toxicity
REPORTED CONDITIONS: read-out: Activity
PROPERTY LABEL: viability at 24 h, 50 ug/ml (%)
Could you give me the number in %? Just the number is fine.

Note to self: viability at 24 h, 50 ug/ml recorded for CC(C)=CC1Oc2cc(O)ccc2-c2oc3c4c(cc(O)c3c(=O)c21)OC(C)(C)C=C4 (centres undefined) [CYCLOMORUSIN] was 14

Note to self: viability at 24 h, 50 ug/ml recorded for O=[N+]([O-])/C=C\c1ccc(O)cc1 was 11.9

Note to self: viability at 24 h, 50 ug/ml recorded for CC(C)=CCc1c(-c2ccc(O)cc2O)oc2c3c(cc(O)c2c1=O)OC(C)(C)C=C3 [MORUSIN] was 23.1

Note to self: viability at 24 h, 50 ug/ml recorded for CC1(C)C=Cc2c(cc(O)c3c(=O)c4c(oc23)-c2ccc(O)cc2OC(C(C)(C)O)C4)O1 (centres undefined) [NEOCYCLOMORUSIN] was 12.8
